# protocol-details: Half life in monkey at 1 mg/kg, iv
# Assay type: ADME, organism-based, Macaca mulatta
# Parameters: dose 1 mg/kg, route intravenous
# test-parameters: rhesus monkey, in vivo

{"columns": ["structure-as-smiles", "half-life, h"],
 "data": [
  ["CC(=O)Nc1nc2c(Oc3cc(N4CCN([C@H](C)c5ccc(F)cc5)CC4)ncn3)cccc2s1", 3.2]
]}

* * *

# protocol-details: Solubility in 0.01N HCl
# Type: physicochemical
# solubility values compiled below

{"columns": ["compound", "readout-relation", "solubility [µg/mL]"],
 "data": [
  ["CC(=O)Nc1nc2c(Oc3cc(N4CCN(C(C)C)CC4)ncn3)cccc2s1", "≥", 200],
  ["CC(=O)Nc1nc2c(Oc3cc(C4=CCC(C(F)(F)F)CC4)ncn3)cccc2s1 (stereo not given)", "=", 13],
  ["CC(=O)Nc1nc2c(Oc3cc(N4CCN(CC(C)(C)C)CC4)ncn3)cccc2s1", "≥", 200],
  ["CC(=O)Nc1nc2c(Oc3cc(C4CCC(C(F)(F)F)CC4)ncn3)cccc2s1 (stereo not given)", "=", 5],
  ["CC(=O)Nc1nc2c(Oc3cc(N4CCN(CC(F)(F)F)CC4)ncn3)cccc2s1", "≥", 200],
  ["CC(=O)Nc1nc2c(Oc3cc(N4CCN(c5ccccc5)CC4)ncn3)cccc2s1", "=", 1.5],
  ["CC(=O)Nc1nc2c(Oc3cc(N4CCN(C(C)(C)C)CC4)ncn3)cccc2s1", "≥", 200],
  ["CC(=O)Nc1nc2c(Oc3cc(N4CCN(C(C)c5ccc(F)cc5)CC4)ncn3)cccc2s1 (stereo not given)", "≥", 200],
  ["CC(=O)Nc1nc2c(Oc3cc(N4CCC(C(F)(F)F)CC4)ncn3)cccc2s1", "=", 9],
  ["CCC(c1ccccc1)N1CCN(c2cc(Oc3cccc4sc(NC(C)=O)nc34)ncn2)CC1 (stereo not given)", "≥", 200]
]}

* * *

# protocol-details: Solubility in SIF
# Type: physicochemical
endpoint-name: solubility (µg/mL)

{"columns": ["molecule", "endpoint-name", "numeric-value"],
 "data": [
  ["CC(=O)Nc1nc2c(Oc3cc(N4CCN(C(C)c5ccc(F)cc5)CC4)ncn3)cccc2s1 (centres undefined)", "solubility", 34],
  ["CC(=O)Nc1nc2c(Oc3cc(N4CCN([C@H](C)c5ccc(F)cc5)CC4)ncn3)cccc2s1", "solubility", 64],
  ["CC(=O)Nc1nc2c(Oc3cc(N4CCN([C@@H](C)c5ccc(F)cc5)CC4)ncn3)cccc2s1", "solubility", 121],
  ["CC(=O)Nc1nc2c(Oc3cc(N4CCN(C(C)c5ccc(C(F)(F)F)cc5)CC4)ncn3)cccc2s1 (centres undefined)", "solubility", 121]
]}

* * *

clearance overview
# protocol-details: Clearance in Sprague-Dawley rat at 1 mg/kg, iv up to 6 hrs
# Assay type: ADME, organism-based
# Set-up: dose 1 mg/kg, route intravenous
# test-parameters: in vivo

{"columns": ["compound", "clearance"],
 "data": [
  ["CC(=O)Nc1nc2c(Oc3cc(N4CCN([C@@H](C)c5ccc(F)cc5)CC4)ncn3)cccc2s1", "30 mL/min/kg"],
  ["CC(=O)Nc1nc2c(Oc3cc(N4CCN(C(C)c5ccccc5F)CC4)ncn3)cccc2s1 (stereo not given)", "50 mL/min/kg"],
  ["CC(=O)Nc1nc2c(Oc3cc(N4CCN(C(C)c5ccc(C(F)(F)F)cc5)CC4)ncn3)cccc2s1 (stereo not given)", "23.3 mL/min/kg"],
  ["CC(=O)Nc1nc2c(Oc3cc(N4CCN(C(C)c5cccc(F)c5)CC4)ncn3)cccc2s1 (stereo not given)", "53.3 mL/min/kg"],
  ["CC(=O)Nc1nc2c(Oc3cc(N4CCN(CC(C)(C)C)CC4)ncn3)cccc2s1", "25 mL/min/kg"]
]}

* * *

# system-tested: UniProt:O35433
# protocol-details: Inhibition of rat TRPV1 expressed in CHO cells assessed as acid-induced Ca2+ influx
# Type: cell-based
We begin with a simple list: items and their reported IC50.

{"columns": ["compound", "readout-relation", "IC50 (nM)"],
 "data": [
  ["CC(=O)Nc1nc2c(Oc3cc(C4=CCC(C(F)(F)F)CC4)ncn3)cccc2s1 (stereo not given)", "=", 2.4],
  ["CC(=O)Nc1nc2c(Oc3cc(N4CCOCC4)ncn3)cccc2s1", ">", 4000],
  ["CC(=O)Nc1nc2c(Oc3cc(N4CCC(C(F)(F)F)CC4)ncn3)cccc2s1", "=", 19],
  ["CC(=O)Nc1nc2c(Oc3cc(N4CCN(C(C)c5ccc(C(F)(F)F)cc5)CC4)ncn3)cccc2s1 (stereo not given)", "=", 1.8],
  ["CC(=O)Nc1nc2c(Oc3cc(N4CCN(CC(F)(F)F)CC4)ncn3)cccc2s1", "=", 120]
]}

* * *

# system-tested: Transient receptor potential cation channel subfamily V member 1 (Rattus norvegicus, UniProt O35433)
# Sequence (O35433 whole entry): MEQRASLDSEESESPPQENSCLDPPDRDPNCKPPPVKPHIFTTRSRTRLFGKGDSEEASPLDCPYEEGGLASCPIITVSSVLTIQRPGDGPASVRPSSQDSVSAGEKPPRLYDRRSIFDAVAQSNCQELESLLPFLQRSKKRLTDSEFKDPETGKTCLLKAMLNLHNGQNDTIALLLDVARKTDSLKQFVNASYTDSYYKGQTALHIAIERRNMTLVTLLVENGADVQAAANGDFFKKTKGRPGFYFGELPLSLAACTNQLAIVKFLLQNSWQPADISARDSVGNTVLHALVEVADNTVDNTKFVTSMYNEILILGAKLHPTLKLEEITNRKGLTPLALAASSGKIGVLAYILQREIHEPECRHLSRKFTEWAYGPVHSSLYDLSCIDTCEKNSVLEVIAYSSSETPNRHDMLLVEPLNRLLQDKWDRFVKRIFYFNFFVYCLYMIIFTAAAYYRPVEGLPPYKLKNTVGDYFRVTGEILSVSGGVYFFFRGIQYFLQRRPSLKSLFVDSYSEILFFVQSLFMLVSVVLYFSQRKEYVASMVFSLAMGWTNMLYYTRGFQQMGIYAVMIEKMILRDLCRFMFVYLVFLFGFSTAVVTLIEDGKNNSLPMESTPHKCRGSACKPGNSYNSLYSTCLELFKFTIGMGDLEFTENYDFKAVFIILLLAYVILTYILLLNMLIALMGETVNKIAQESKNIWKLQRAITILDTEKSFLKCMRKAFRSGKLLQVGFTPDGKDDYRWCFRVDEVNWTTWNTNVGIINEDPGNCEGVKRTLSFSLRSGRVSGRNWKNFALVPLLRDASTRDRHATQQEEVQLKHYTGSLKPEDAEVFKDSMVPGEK
# protocol-details: Inhibition of rat TRPV1 expressed in CHO cells assessed as acid-induced Ca2+ influx
# Assay type: cell-based
pIC50: −log10 of the molar value.
Property: pIC50; scope: individual compounds

{"columns": ["compound", "readout-relation", "pIC50"],
 "data": [
  ["CC(=O)Nc1nc2c(Oc3cc(N4CCN(CC(C)(C)C)CC4)ncn3)cccc2s1", "=", 8.30],
  ["CC(=O)Nc1nc2c(Oc3cc(N4CCN(C(C)(C)C)CC4)ncn3)cccc2s1", "<", 5.40],
  ["CC(=O)Nc1nc2c(Oc3cc(C4CCC(C(F)(F)F)CC4)ncn3)cccc2s1 (centres undefined)", "=", 8.00],
  ["CC(=O)Nc1nc2c(Oc3cc(N4CCNCC4)ncn3)cccc2s1", "<", 5.40]
]}

* * *

# protocol-details: Half life in dog at 1 mg/kg, iv
# Format: ADME, organism-based, Canis lupus familiaris
# Design: dose 1 mg/kg, route intravenous
# test-parameters: in vivo

{"columns": ["structure-as-smiles", "half-life, h"],
 "data": [
  ["CC(=O)Nc1nc2c(Oc3cc(N4CCN([C@H](C)c5ccc(F)cc5)CC4)ncn3)cccc2s1", 2.7]
]}

* * *

# protocol-details: Clearance in monkey at 1 mg/kg, iv
# Type: ADME, organism-based, Macaca mulatta
# Parameters: dose 1 mg/kg, route intravenous
# test-parameters: rhesus monkey, in vivo

{"columns": ["structure-as-smiles", "clearance, mL/min/kg"],
 "data": [
  ["CC(=O)Nc1nc2c(Oc3cc(N4CCN([C@H](C)c5ccc(F)cc5)CC4)ncn3)cccc2s1", 6.67]
]}

* * *

# protocol-details: Solubility in PBS
# Type: physicochemical

{"columns": ["compound", "unit-info", "readout-relation", "solubility"],
 "data": [
  ["CC(=O)Nc1nc2c(Oc3cc(N4CCN([C@@H](C)c5ccc(F)cc5)CC4)ncn3)cccc2s1", "µg/mL", "=", 31],
  ["CC(=O)Nc1nc2c(Oc3cc(N4CCN(C(C)c5ccc(F)cc5)CC4)ncn3)cccc2s1 (stereo not given)", "µg/mL", "=", 5],
  ["CC(=O)Nc1nc2c(Oc3cc(N4CCN(C(C)c5ccc(C(F)(F)F)cc5)CC4)ncn3)cccc2s1 (stereo not given)", "µg/mL", "=", 5],
  ["CC(=O)Nc1nc2c(Oc3cc(N4CCN([C@H](C)c5ccc(F)cc5)CC4)ncn3)cccc2s1", "µg/mL", "=", 7],
  ["CC(=O)Nc1nc2c(Oc3cc(-c4ccc(C(F)(F)F)cc4)ncn3)cccc2s1", "µg/mL", "<", 1]
]}

* * *

# protocol-details: Volume of distribution in Sprague-Dawley rat at 1 mg/kg, iv up to 6 hrs
# Type: ADME, organism-based
# Parameters: dose 1 mg/kg, route intravenous
# test-parameters: in vivo, read-out: Vss
Outcome label depends on Vd relative to 3 L/kg: at/above gives YES, below gives NO.

{"columns": ["compound", "class-name"],
 "data": [
  ["CC(=O)Nc1nc2c(Oc3cc(N4CCN([C@H](C)c5ccc(F)cc5)CC4)ncn3)cccc2s1", "NO"],
  ["CC(=O)Nc1nc2c(Oc3cc(N4CCN(C(C)c5ccc(F)cc5)CC4)ncn3)cccc2s1 (stereo not given)", "NO"],
  ["CC(=O)Nc1nc2c(Oc3cc(-c4ccc(C(F)(F)F)cc4)ncn3)cccc2s1 [AMG-517]", "NO"],
  ["CC(=O)Nc1nc2c(Oc3cc(N4CCN(C(C)c5ccc(C(F)(F)F)cc5)CC4)ncn3)cccc2s1 (stereo not given)", "YES"],
  ["CC(=O)Nc1nc2c(Oc3cc(N4CCN([C@@H](C)c5ccc(F)cc5)CC4)ncn3)cccc2s1", "YES"]
]}

* * *

# protocol-details: AUC (0 to infinity) in Sprague-Dawley rat at 1 mg/kg, iv up to 6 hrs
# Format: ADME, organism-based
# Set-up: time infinity, dose 1 mg/kg, route intravenous
# test-parameters: plasma
Measured AUC(0-inf) accompanies every entry in the list below.

{"columns": ["molecule", "AUC(0-inf) [ng·h/mL]"],
 "data": [
  ["CC(=O)Nc1nc2c(Oc3cc(N4CCN(C(C)c5ccc(F)cc5)CC4)ncn3)cccc2s1 (centres undefined)", 1000],
  ["CC(=O)Nc1nc2c(Oc3cc(N4CCN(C(C)c5ccc(C(F)(F)F)cc5)CC4)ncn3)cccc2s1 (centres undefined)", 720],
  ["CC(=O)Nc1nc2c(Oc3cc(N4CCN([C@H](C)c5ccc(F)cc5)CC4)ncn3)cccc2s1", 1200],
  ["CC(=O)Nc1nc2c(Oc3cc(N4CCN([C@@H](C)c5ccc(F)cc5)CC4)ncn3)cccc2s1", 550]
]}

Cited source: ChEMBL document CHEMBL1145460
